Item-by-item account of composite z-score
Tested On: Albumin (Bos taurus)
Assay: bovine serum albumin binders on microarray, profiling panel, artefact control for SMM control protein annotation, biochemical, small-molecule microarray, Alexa647 label, 635/667 nm fluorescence (AID 1118);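 also: score merges 667 nm emission intensity and signal-to-noise per printed compound spot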
Assay Context: BSA-A647 binding, fluorescence 635 nm, higher = more signal

Compound: C=CC[C@]1(C(=O)NCC(O)CO)N=C(c2ccc(OCCCO)cc2)O[C@H]1c1ccccc1CN=[N+]=[N-] (some centres not stated)
Tested On: Albumin (Bos taurus)
composite z-score: 0.0838
//
Compound: CCCCC(=C=CC[C@@H](O)c1ccc(OCCO)cc1)CCO
Tested On: Albumin (Bos taurus)
composite z-score: 0.543
//
Compound: CC(C)(C)OC(=O)CC[C@]1(C(N)=O)N=C(c2ccc(OCCCO)cc2)O[C@H]1c1ccccc1N=[N+]=[N-]
Tested On: Albumin (Bos taurus)
composite z-score: 0.426
//
Compound: COC(=O)C(CC#Cc1ccc2c(c1)[C@]1(C(=O)N2)[C@H](c2ccc(OCCO)cc2)N2[C@H](c3ccccc3)[C@H](c3ccccc3)OC(=O)[C@H]2[C@@H]1C(N)=O)C(=O)OC
Tested On: Albumin (Bos taurus)
composite z-score: 0.734
//
Compound: COc1ccc(CCNC(=O)[C@@H]2c3ccccc3C(=O)N(C(C)C)[C@H]2c2ccc(CO)cc2)cc1
Tested On: Albumin (Bos taurus)
composite z-score: -1.09
//
Compound: COc1ccc([Si](C)(C)[C@H]2[C@H](CC(=O)N(CCO)Cc3ccccc3)O[C@@]3(C(=O)N(Cc4ccc(N5C(=O)c6cccc7cccc5c67)cc4)c4ccccc43)[C@@H]2C)cc1
Tested On: Albumin (Bos taurus)
composite z-score: 0.0079
//
Compound: NCCCCCCNC(=O)[C@@H]1C[C@@H]2C(=O)NCC(=O)N2[C@@H]1c1cccc(OCCO)c1
Tested On: Albumin (Bos taurus)
composite z-score: 0.432

Hello, the source for this data is PubChem BioAssay, in case you need it.
